- Procedure details: Solubility study with different buffer concentrations at pH 7.4
- Condition set: phosphate buffer, pH 7.4, aqueous buffer, thermodynamic from solid
Endpoint label: solubility at 24 h

[O-][n+]1ccc(O)c(O)c1-c1c(O)c(O)cc[n+]1[O-] :: 3700 to 4900 µg/mL

* * *

- Procedure details: Solubility study with buffer (pH dependent solubility testing)
- Condition set: phosphate buffer, pH 5.8, aqueous buffer, thermodynamic from solid
Endpoint label: solubility thermodynamic at 24 h (µg/mL)

[O-][n+]1ccc(O)c(O)c1-c1c(O)c(O)cc[n+]1[O-] [Orellanine] :: 29.9

* * *

- Procedure details: Solubility study with different buffer salts at pH 7.4
- Condition set: Tris-HCl buffer, pH 7.4, aqueous buffer, thermodynamic from solid
- Description: Solubility Study with Different Buffer Salts at pH 7.4 […]
Endpoint label: solubility thermodynamic at 24 h (µg/mL)

[O-][n+]1ccc(O)c(O)c1-c1c(O)c(O)cc[n+]1[O-] :: 4590

* * *

- Procedure details: Solubility study with different ionic strengths at pH 7.4
- Condition set: phosphate buffer with sodium chloride, pH 7.4, aqueous buffer, thermodynamic from solid, Concentration of Orellanine, NaH2PO4—Na2HPO4 pH 7.4 at 50 mM plus 0.98% NaCl; stirred 24 hours at room temperature; final pH 7.19, 328 mOsm
Endpoint label: solubility thermodynamic at 24 h (µg/mL)

[O-][n+]1ccc(O)c(O)c1-c1c(O)c(O)cc[n+]1[O-] :: 5900

* * *

- Procedure details: Solubility study with different buffer salts at pH 7.4
- Condition set: citrate phosphate buffer, pH 7.4, aqueous buffer, thermodynamic from solid
Endpoint label: solubility thermodynamic at 24 h (µg/mL)

[O-][n+]1ccc(O)c(O)c1-c1c(O)c(O)cc[n+]1[O-] :: 5440

* * *

- Procedure details: Formulation adjustment: solubility in selected buffers plus 0.70% NaCl, pH adjusted twice
- Condition set: phosphate buffer with sodium chloride, pH 7.4, aqueous buffer, thermodynamic from solid
Endpoint label: solubility thermodynamic at 24 h

[O-][n+]1ccc(O)c(O)c1-c1c(O)c(O)cc[n+]1[O-] :: 11.1 mg/mL

* * *

- Procedure details: Solubility study with buffer (pH dependent solubility testing)
- Condition set: acetate buffer, pH 4.5, aqueous buffer, thermodynamic from solid
- Method: Solubility Study with Buffer (pH Dependent Solubility Testing) A phase solubility study was performed for different buffers to analyse the effect of pH on the solubility of Orellanine. […]
Endpoint label: solubility thermodynamic at 24 h (µg/mL)

[O-][n+]1ccc(O)c(O)c1-c1c(O)c(O)cc[n+]1[O-] [Orellanine] :: 2.4

* * *

- Procedure details: Formulation adjustment: solubility in selected buffers plus 0.70% NaCl, pH adjusted twice
- Condition set: citrate phosphate buffer with sodium chloride, pH 7.4, aqueous buffer, thermodynamic from solid
- Procedure: Two buffers were selected: NaH2PO4—Na2HPO4 pH 7.4 and Citrate-Na2HPO4 PH 7.4 at 50 mM, each with addition of 0.70% sodium chloride. Adding 0.70% sodium chloride provides a solution close to isotonicity. […]
Endpoint label: solubility thermodynamic at 24 h (mg/mL)

[O-][n+]1ccc(O)c(O)c1-c1c(O)c(O)cc[n+]1[O-] :: 10.5

* * *

- Procedure details: Solubility study with different buffer concentrations at pH 7.4
- Condition set: phosphate buffer, pH 7.4, aqueous buffer, thermodynamic from solid, Concentration of Orellanine, NaH2PO4—Na2HPO4 pH 7.4 100 mM; pH adjusted to 7.4 after 3 hours, stirred 24 hours at room temperature; final pH 7.30, 242 mOsm
Endpoint label: solubility thermodynamic at 24 h (µg/mL)

[O-][n+]1ccc(O)c(O)c1-c1c(O)c(O)cc[n+]1[O-] :: 4910
